Test system: PC-3 prostate
MEASUREMENT DESCRIPTION: NCI tumour cell line growth inhibition, 48 h; in the data active = GI50 below about 0.43 µM; inactive = the rest
Hi! Could you answer with just one of these? Y = active, N = inactive

Input line: // param item: CCCCC#Cc1c(I)n(C2OC(CO[Si](C)(C)C(C)(C)C)C3OC(C)(C)OC32)c(=O)[nH]c1=O (centres undefined) ; yields the recorded call
Output line: N

Input line: // param item: "C=CC[n+]1c(/C=C2\Sc3ccccc3N2C)sc(-c2ccccc2)c1-c1ccccc1" ; yields the recorded call
Output line: Y

====

Tested on: HS 578T breast
MEASUREMENT DESCRIPTION: NCI tumour cell line growth inhibition, 48 h
Lab note: compare TGI against 60 µM. Equal or greater, write T. Smaller, write F.

Solved cases (3 shown):
# COMPOUND, TESTED TARGET, ASSIGNED CATEGORY
records = [
    ("CCOC(=O)C(C(N)=O)c1nc2cc([N+](=O)[O-])ccc2nc1/C=C(\\O)c1ccc(C)cc1 (stereo not given)", "HS 578T breast", "T"),
    ("Nc1nc(-c2ccccc2)cc(-c2ccc(F)cc2)c1-c1ccc(Cl)cc1", "HS 578T breast", "T"),
    ("COc1cc(C2CC(c3ccc(C)cc3)=NN2C(C)=O)ccc1Oc1ccnc2cc(Cl)ccc12 (stereo not given)", "HS 578T breast", "T"),
]

Input line: Is TGI for "COc1ccc(-c2ccc(/C=N/n3cnn(CN4CCN(C)CC4)c3=S)o2)c([N+](=O)[O-])c1" at or above 60 µM?
Output line: T

Input line: Is TGI for C/C(=C/CC[C@](C)(OC1OC(CO)C(O)C(O)C1OC1OC(C)C(O)C(O)C1O)[C@H]1CC[C@]2(C)[C@@H]1CC[C@@H]1[C@@]3(C)CC[C@H](O)C(C)(C)[C@@H]3C[C@H](O)[C@]12C)CO (stereo not given in full) at or above 60 µM?
Output line: T

Input line: Is TGI for "O=C(/C=C/c1ccco1)c1ccc(Nc2ccnc3cc(Cl)ccc23)cc1" at or above 60 µM?
Output line: T

Input line: Is TGI for "COc1cc(C(C)(C)C)c(OC(=O)/C=C/C(=O)O/C=C/[N+](=O)[O-])c(C(C)(C)C)c1" at or above 60 µM?
Output line: T

Input line: Is TGI for Nc1nc(Cl)cc2c1ncn2C1OC(CO)C(O)C1O (stereo not given) at or above 60 µM?
Output line: T

Input line: Is TGI for "O=c1[nH]nc(Nc2ccccc2)c2nnn(Cc3ccccc3)c12" at or above 60 µM?
Output line: T

Input line: Is TGI for "Cc1ccc(N=c2oc3c(ccc4ccccc43)nc2Nc2ccc(C)cc2)cc1" at or above 60 µM?
Output line: T

Input line: Is TGI for O=C1OS2(OC(=O)c3cccc4cccc2c34)c2ccccc21 (stereo not given) at or above 60 µM?
Output line: T

Input line: Is TGI for "Nc1c2c(nc3ccccc13)-c1ccccc1CCC2" at or above 60 µM?
Output line: F

Input line: Is TGI for "C=C1CN(C(=O)c2cc3cc(OC)c(OC)c(OC)c3[nH]2)c2cc([N+](=O)[O-])ccc21" at or above 60 µM?
Output line: F

Input line: Is TGI for "CC(=O)NC1=NC(=O)/C(=C/c2ccc(Cl)cc2Cl)N1C" at or above 60 µM?
Output line: T

Input line: Is TGI for "N=C(N)c1ccc(-c2ccc(-c3ccco3)o2)cc1" at or above 60 µM?
Output line: F

Input line: Is TGI for "Cc1c(Br)cccc1NC(=O)c1sc2nc3c(cc2c1N)CN(Cc1ccccc1)CC3" at or above 60 µM?
Output line: F

Input line: Is TGI for CC(C)OCC(O)COc1cc(=O)oc2ccccc12 (stereo not given) at or above 60 µM?
Output line: T

Input line: Is TGI for "O=c1[nH]c(=O)n(COCCO)cc1-c1ccccc1" at or above 60 µM?
Output line: T

Input line: Is TGI for O=C(NCCc1ccccc1)C(c1csc2ccccc12)N(C(=O)CCl)c1ccc(-c2cnco2)cc1 (stereo not given) at or above 60 µM?
Output line: F
